Field: SH2 binding enrichment. Provide a value for each of the sequences that follow.
- system: SHP2-C SH2
- experiment: SH2 binding enrichment of the phosphorylated peptide, bacterial display (enrichment ratio); higher = better substrate or ligand; peptides without Tyr show the background

Worked cases, SH2 binding enrichment given:
{"query.sequence": "SEEVNYATLTF [CLEC12B_Y7_T6N]", "system": "SHP2-C SH2", "SH2 binding enrichment": 3.03}
{"query.sequence": "IWGKKYPTCNS [PTPRZ1_Y53_N48I]", "system": "SHP2-C SH2", "SH2 binding enrichment": 0.89}
{"query.sequence": "PLQSEYSSIST [ITGB4_Y1760_T1764S]", "system": "SHP2-C SH2", "SH2 binding enrichment": 0.826}
{"query.sequence": "TPGPNYRPGFN [USH2A_Y463_YF]", "system": "SHP2-C SH2", "SH2 binding enrichment": 0.505}

Need SH2 binding enrichment for each of these sequences.
1. DVFVSYDCGKS [SORL1_Y139_Y141C_YF]
2. NPQKSYLIRLF [WAS_Y83_F84L_YF]
3. EGNERYEGYCV [GRIA3_Y451]
4. GDEEDYFEIPG [EGFR_opt_F_2015]
5. EAEPYYRSLRD [NPHS1_Y1139]
6. IDGLEYLHSQG [STK11_Y166]
7. SDYYAYSPVQE [H6PD_Y449_R453Q]
8. NFADPYRQLPF [CTNND2_Y503_Q507P_YF]

1: 0.592; 2: 0.822; 3: 0.693; 4: 0.632; 5: 0.791; 6: 0.57; 7: 0.971; 8: 0.817

* * *

- Test system: c-Abl (mouse)
- experiment: phosphorylation enrichment, bacterial display (enrichment ratio); higher = better substrate or ligand; peptides without Tyr show the background
Returns 1 (yes) if the recorded phosphorylation enrichment is greater than or equal to 0.8, and 0 (no) otherwise.

{"query.sequence": "FQQLFYLLQIN [IQGAP2_Y890_T894I_YF]", "class.assignment": "1 (yes)"}
{"query.sequence": "PLDGEYFTLQV [TP53_Y327_I332V]", "class.assignment": "1 (yes)"}
{"query.sequence": "VKANTYEKYWP [GATM_Y100]", "class.assignment": "0 (no)"}
{"query.sequence": "PYIDSYEKDVA [PGM1_Y521_L516P]", "class.assignment": "1 (yes)"}
{"query.sequence": "SLGKGYSVGGC [MC4R_Y35_D37V]", "class.assignment": "0 (no)"}

Is phosphorylation enrichment for RGESFYQDTMN [RARS_Y338_R341T] at or above 0.8?
1 (yes)

Textbook exercise: given the entry VNFGAYINDFK [GLB1_Y488_YF] , state whether its phosphorylation enrichment is greater than or equal to 0.8.
0 (no)

API: above_or_equal(metric=phosphorylation enrichment, cutoff=0.8) for item RYVTRSIYNRE [HLA-DQB1_Y62_Y62S]
0 (no)

Entry SYSGEYGGGGG [ZG16_Y30] : is its phosphorylation enrichment no less than 0.8?
0 (no)

Please indicate if the recorded phosphorylation enrichment for LDFNEYVRDLN [HPRT1_Y198_F199V_YF] meets or exceeds 0.8.
1 (yes)

Check the entry RYVSRYIYNRE [HLA-DQB1_Y62_T60S] : does phosphorylation enrichment equal or exceed 0.8?
0 (no)

Does phosphorylation enrichment meet or surpass 0.8 for LNNIIYRVERA [CUX2_Y1470] ?
1 (yes)

* * *

Consider the following sequences; for each one, report its phosphorylation enrichment.
- system: MERTK (UniProt Q12866)
- Sequence (Q12866 whole entry, looked up): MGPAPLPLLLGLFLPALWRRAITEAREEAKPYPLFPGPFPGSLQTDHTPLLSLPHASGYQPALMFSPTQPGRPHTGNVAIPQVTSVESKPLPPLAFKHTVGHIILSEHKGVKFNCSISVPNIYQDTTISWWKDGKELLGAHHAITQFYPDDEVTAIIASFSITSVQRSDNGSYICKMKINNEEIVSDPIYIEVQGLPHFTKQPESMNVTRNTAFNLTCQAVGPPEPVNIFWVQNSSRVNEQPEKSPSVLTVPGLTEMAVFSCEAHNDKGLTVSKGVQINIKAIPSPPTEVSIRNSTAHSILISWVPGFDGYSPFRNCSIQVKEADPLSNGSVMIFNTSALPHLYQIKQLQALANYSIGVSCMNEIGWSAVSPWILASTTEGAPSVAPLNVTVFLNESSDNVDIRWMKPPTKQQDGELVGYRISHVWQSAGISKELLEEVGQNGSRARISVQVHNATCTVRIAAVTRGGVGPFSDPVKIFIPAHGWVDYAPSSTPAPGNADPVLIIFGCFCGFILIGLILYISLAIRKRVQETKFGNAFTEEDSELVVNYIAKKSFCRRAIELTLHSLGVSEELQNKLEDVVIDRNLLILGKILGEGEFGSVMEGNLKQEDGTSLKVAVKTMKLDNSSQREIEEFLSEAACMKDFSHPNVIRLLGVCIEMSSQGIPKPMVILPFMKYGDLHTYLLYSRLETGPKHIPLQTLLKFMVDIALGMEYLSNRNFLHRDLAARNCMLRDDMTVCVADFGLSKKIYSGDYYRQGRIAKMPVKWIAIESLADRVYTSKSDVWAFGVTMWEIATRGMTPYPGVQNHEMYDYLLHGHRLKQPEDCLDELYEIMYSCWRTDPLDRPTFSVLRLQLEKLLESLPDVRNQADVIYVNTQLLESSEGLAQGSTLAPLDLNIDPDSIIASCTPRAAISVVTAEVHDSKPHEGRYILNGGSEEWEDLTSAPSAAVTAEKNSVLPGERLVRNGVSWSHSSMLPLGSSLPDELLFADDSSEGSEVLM
- experiment: phosphorylation enrichment, bacterial display (enrichment ratio); higher = better substrate or ligand; peptides without Tyr show the background
Answers are plain numbers.

Each sequence below has a recorded value; state its phosphorylation enrichment.
1. FFRDGCMPRQF [GSS_Y270_Y270C_YF]
2. GRDQPYSGAGD [TYRO3_Y828]
3. PESIMYWKFTT [NTRK3_Y744_R745W]
4. EVGRVYLFLQP [ITGA2B_Y360]

[0.386, 0.383, 0.851, 0.34]

Answer for every listed entry: what is its phosphorylation enrichment? The entries follow.
1. QFKDKYLAKHN [CASK_Y712_YF]
2. RFVTRYIFNRE [HLA-DQB1_Y62_YF]
3. DERQPYAHMNG [IGF1R_Y1346]

1: 0.403; 2: 0.643; 3: 0.343

* * *

I'd be grateful if you could share measured SH2 binding enrichment for these entries.
- system: c-Src SH2
- experiment: SH2 binding enrichment of the phosphorylated peptide, bacterial display (enrichment ratio); higher = better substrate or ligand; peptides without Tyr show the background

Worked examples, 5 sequences total:
{"query.sequence": "EILTQYEAMAS [GFAP_Y242_R239L]", "SH2 binding enrichment": 2.84}
{"query.sequence": "VKANTYEKYWP [GATM_Y100]", "SH2 binding enrichment": 1.02}
{"query.sequence": "SLIDGYFRLTE [JAK2_Y372_A377E_YF]", "SH2 binding enrichment": 1.85}
{"query.sequence": "DQVEQYNKELE [LMNA_Y259_K260N]", "SH2 binding enrichment": 0.441}
{"query.sequence": "FPHVIYARLWR [SMAD4_Y95]", "SH2 binding enrichment": 0.425}

Hello, I would appreciate it if you could give SH2 binding enrichment for each entry below.
1. TLLSAYQIPRT [GAB2_Y324_P320L]
2. ILDEAYVMASV [EGFR_Y764]
3. SAAAIYTVRHP [PMP22_Y117]

0.786
0.356
0.443

Return reported SH2 binding enrichment values for all items listed beneath this line.
1. LALTVYADCLA [ABCA4_Y2063_G2059A]
2. PSFSEYASVQV [SIRPA_Y496]
3. ESLSSYWESAK [APOC2_Y47]
4. CKPGFYNLKEK [LAMA1_Y490]
5. ALWFIYSHTRS [ENG_Y614_YF]
6. RLPSGYGLAFR [DLK1_Y262_YF]
7. LEYNEYFRDLN [HPRT1_Y198_D194E]

1: 0.572; 2: 0.705; 3: 0.713; 4: 0.611; 5: 0.552; 6: 0.521; 7: 0.451

* * *

- system: Fes (UniProt P07332)
- Sequence (P07332 whole entry, looked up): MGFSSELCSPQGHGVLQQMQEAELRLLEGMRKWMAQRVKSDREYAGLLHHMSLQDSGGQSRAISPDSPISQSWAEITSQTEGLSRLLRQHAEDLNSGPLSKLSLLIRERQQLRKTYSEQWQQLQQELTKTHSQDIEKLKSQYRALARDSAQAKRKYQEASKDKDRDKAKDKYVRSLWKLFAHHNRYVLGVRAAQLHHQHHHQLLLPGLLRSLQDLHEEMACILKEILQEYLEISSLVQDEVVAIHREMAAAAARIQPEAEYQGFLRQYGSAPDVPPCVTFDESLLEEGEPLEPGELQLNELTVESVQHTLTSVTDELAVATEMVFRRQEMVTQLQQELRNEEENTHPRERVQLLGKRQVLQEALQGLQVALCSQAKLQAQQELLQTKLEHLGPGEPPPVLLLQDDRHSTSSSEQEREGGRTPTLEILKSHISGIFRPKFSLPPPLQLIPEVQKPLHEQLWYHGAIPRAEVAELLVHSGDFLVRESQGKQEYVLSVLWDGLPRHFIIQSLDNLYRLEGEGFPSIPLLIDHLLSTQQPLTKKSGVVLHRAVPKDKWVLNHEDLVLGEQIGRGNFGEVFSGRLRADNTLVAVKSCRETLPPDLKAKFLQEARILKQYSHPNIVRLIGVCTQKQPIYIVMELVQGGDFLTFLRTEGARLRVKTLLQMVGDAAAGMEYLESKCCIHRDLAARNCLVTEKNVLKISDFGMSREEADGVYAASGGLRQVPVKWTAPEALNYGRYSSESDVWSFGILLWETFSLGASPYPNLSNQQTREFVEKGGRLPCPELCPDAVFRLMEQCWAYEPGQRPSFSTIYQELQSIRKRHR
- experiment: phosphorylation enrichment, bacterial display (enrichment ratio); higher = better substrate or ligand; peptides without Tyr show the background
Mark label 1 for reported phosphorylation enrichment of 1 or greater; mark label 0 for anything smaller.

Solved cases below.
{"query.sequence": "NFADPYRQLPF [CTNND2_Y503_Q507P_YF]", "class.assignment": "label 0"}
{"query.sequence": "LQPNNYQFCGG [CSF1R_Y969]", "class.assignment": "label 1"}
{"query.sequence": "LEGEEYRMSGE [KRT3_Y511]", "class.assignment": "label 1"}

Determine whether measured phosphorylation enrichment meets or exceeds 1 for RRIHNYRGHLW [VHL_Y112_S111N]
label 0

* * *

- system: Grb2 SH2 (UniProt P62993)
- Sequence (P62993 whole entry, looked up): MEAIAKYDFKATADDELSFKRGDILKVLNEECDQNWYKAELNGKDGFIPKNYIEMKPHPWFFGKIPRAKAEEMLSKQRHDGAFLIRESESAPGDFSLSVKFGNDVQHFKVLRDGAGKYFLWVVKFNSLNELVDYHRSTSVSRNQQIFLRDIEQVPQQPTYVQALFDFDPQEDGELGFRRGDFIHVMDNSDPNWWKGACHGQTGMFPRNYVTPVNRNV
- experiment: SH2 binding enrichment of the phosphorylated peptide, bacterial display (enrichment ratio); higher = better substrate or ligand; peptides without Tyr show the background
Classification scheme (SH2 binding enrichment): lowest = under 0.8, middle = from 0.8 up to 1, highest = 1 and over

{"query.sequence": "LDFNEYVRDLN [HPRT1_Y198_F199V_YF]", "class.assignment": "highest"}

Lab note: sort IVEYAYNDKAI [PUM3_Y259] into the matching SH2 binding enrichment band.
lowest

Which bin should I file NVKGIYAVGDV [GSR_Y371] under?
lowest

Band assignment needed for CTLLPYFSAPV [DGKE_Y269_R273P_YF] please.
lowest

For the record TTPGPYRSIYF [MPG_Y71] , report the class its SH2 binding enrichment corresponds to.
highest

Which class does IINENYDYLKV [NUP98_Y1664_G1669V] fall in?
middle

Record ATDLAYYLVRK [ASL_Y375] — which class?
highest

Class (by measured SH2 binding enrichment) for FRTGHYLCNAC [GATA1_Y223_D218Y_YF]
highest

Exercise: read the entry ISSLCYELLEE [TRPC6_Y896_R895C] and state which class it falls under.
middle

State the band of VDGSLYKTHPQ [HK1_Y417]
lowest

For this sequence, which bin applies? RRAVKYLQMVG [AVPR2_Y117_C112R]
middle

Hi, small favor: classify YQLPYYNTVPS [BMPR1A_Y458_M460T] by its SH2 binding enrichment when you get a moment.
highest

Classify this sequence: PSGPMYRGAVP [ASAH1_Y43_T42M]
middle

Just checking, what class would you give VEGISYDFIPT [CBS_Y308_G307S] here?
lowest

Bin? NRLTDYFELLL [BBS10_Y536_P539L_YF]
highest

* * *

- system: EPHB1 (UniProt P54762)
- Sequence (P54762 whole entry, looked up): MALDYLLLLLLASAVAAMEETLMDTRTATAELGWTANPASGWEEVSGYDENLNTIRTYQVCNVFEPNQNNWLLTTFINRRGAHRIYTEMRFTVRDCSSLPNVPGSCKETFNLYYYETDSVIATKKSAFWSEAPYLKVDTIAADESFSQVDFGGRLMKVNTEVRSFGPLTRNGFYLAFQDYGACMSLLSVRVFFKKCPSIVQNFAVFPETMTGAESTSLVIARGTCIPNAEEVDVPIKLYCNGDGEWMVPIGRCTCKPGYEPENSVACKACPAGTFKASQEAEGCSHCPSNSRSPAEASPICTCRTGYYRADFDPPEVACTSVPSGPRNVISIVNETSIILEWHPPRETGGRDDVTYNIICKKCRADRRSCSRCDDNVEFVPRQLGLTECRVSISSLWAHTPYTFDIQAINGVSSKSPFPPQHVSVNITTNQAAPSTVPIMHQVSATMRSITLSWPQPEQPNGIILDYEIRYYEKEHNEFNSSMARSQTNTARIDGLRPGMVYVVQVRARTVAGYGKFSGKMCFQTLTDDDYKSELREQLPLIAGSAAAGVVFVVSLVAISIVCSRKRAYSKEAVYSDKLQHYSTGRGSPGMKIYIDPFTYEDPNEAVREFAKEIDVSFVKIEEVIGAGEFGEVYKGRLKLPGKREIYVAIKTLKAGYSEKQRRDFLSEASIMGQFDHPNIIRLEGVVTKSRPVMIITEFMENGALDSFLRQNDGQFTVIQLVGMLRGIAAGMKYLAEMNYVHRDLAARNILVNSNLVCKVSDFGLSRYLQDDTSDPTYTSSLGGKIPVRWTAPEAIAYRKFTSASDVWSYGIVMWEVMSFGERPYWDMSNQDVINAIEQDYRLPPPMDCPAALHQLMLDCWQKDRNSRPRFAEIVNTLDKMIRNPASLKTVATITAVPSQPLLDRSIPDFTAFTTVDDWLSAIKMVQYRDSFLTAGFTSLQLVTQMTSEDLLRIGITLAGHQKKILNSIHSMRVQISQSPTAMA
- experiment: phosphorylation enrichment, bacterial display (enrichment ratio); higher = better substrate or ligand; peptides without Tyr show the background
measured.parameter: phosphorylation enrichment
Answers are plain numbers.

Guide cases for phosphorylation enrichment, answers given:
{"query.sequence": "LNLDTYQKRLR [PLA2G2D_Y126_R121L]", "phosphorylation enrichment": 0.44}
{"query.sequence": "LDYNEYVRDLN [HPRT1_Y198_F199V]", "phosphorylation enrichment": 0.761}
{"query.sequence": "YENGEYIIRQG [PRKG1_Y247]", "phosphorylation enrichment": 0.552}
{"query.sequence": "AKKVFYVNETR [SHH_Y253_I255N]", "phosphorylation enrichment": 0.594}

Take each entry in turn and give its phosphorylation enrichment.
1. SLGKGYSVGGC [MC4R_Y35_D37V]
2. KAIMTYVFSFF [ACTN4_Y260_S262F_YF]
3. HSDYQYSQRSQ [PKP2_Y168]
4. YSSLGYPPPEG [ZSWIM4_Y87]
5. KPEKTYGLRNE [CEP43_Y267_K271N]
6. HIKHNYECLVF [XRCC5_Y416_YF]
7. KVPRHYDDPGK [FOXG1_Y246]

1. 0.523
2. 0.553
3. 0.495
4. 0.511
5. 0.39
6. 1.86
7. 0.414

# per-item lookup of phosphorylation enrichment; items listed below
1. RPSRWYQFPVA [ANOS1_Y259_R262P]
2. CDDGKYVYVVT [RPS6KA3_Y488_Y483C]
3. AEFGLYRAMVR [VSX2_Y222_G223R_YF]
4. GYKVRYATWSI [FGFR1_Y210]

1. 0.403
2. 0.896
3. 0.731
4. 0.573

Hello, I would appreciate it if you could give phosphorylation enrichment for each entry below.
1. AIIGIYILRDD [CDH23_Y2949]
2. RLPSGYGLAFR [DLK1_Y262_YF]
3. WVFNHYRCIIW [BRCA2_Y2624_W2626C_YF]
4. MTKEQYIKMNQ [ARFGEF2_Y797_R802Q]
5. IPVNGYQPVPA [ROR2_Y824_V819I]

[0.831, 0.416, 0.885, 0.38, 0.385]
